# Test system: Human immunodeficiency virus 1
# Method: Resistance index, ratio of EC50 for HIV-1 harboring reverse transcriptase Y181C mutant to EC50 for wild type HIV-1 NL4-3
# Assay type: functional
Assignment: determine reported Ratio EC50 for the given compounds.

COC(c1nc(NC(C)C)[nH]c(=O)c1C)c1c(Cl)cccc1Cl (configuration not stated)
60
COC(c1nc(NC2CCCC2)[nH]c(=O)c1C)c1c(F)cccc1Cl (configuration not stated)
56
CCCN(C)c1nc([C@@H](OC)c2c(Cl)cccc2Cl)c(C)c(=O)[nH]1
12
COC(c1nc(SC2CCCC2)[nH]c(=O)c1C)c1c(Cl)cccc1Cl (configuration not stated)
500
CCCN(C)c1nc([C@H](OC)c2c(Cl)cccc2Cl)c(C)c(=O)[nH]1
7

Please state Ratio EC50 for every compound in the list that follows.
1. Cc1c(C(C)c2c(F)cccc2F)nc(SC2CCCC2)[nH]c1=O (configuration not stated)
2. COC(c1nc(NC(C)C)[nH]c(=O)c1C)c1c(F)cccc1Cl (configuration not stated)
3. Cc1c(C(C)c2c(F)cccc2F)nc(NC2CCCC2)[nH]c1=O (configuration not stated)
4. CCCNc1nc(C(OC)c2c(F)cccc2Cl)c(C)c(=O)[nH]1 (configuration not stated)
5. COC(c1nc(NC2CCCC2)[nH]c(=O)c1C)c1c(F)cccc1F (configuration not stated)

1: 100; 2: 48; 3: 9; 4: 104; 5: 83 - 86

---

# Test system: Human immunodeficiency virus 1
# Method: Resistance index, ratio of ID50 for recombinant HIV-1 His-tagged reverse transcriptase p66/p51 L100I mutant to ID50 for recombinant wild type HIV-1 reverse transcriptase His-tagged p66/p51
Consider the cut-off 70. If the recorded Ratio is strictly smaller, the label is label 1; if not, the label is label 0.

These recorded examples may help you get a feel for the data.
COC(c1nc(SC2CCCC2)[nH]c(=O)c1C)c1c(F)cccc1F (stereo unspecified)
label 1
CCCNc1nc(C(C)c2c(F)cccc2F)c(C)c(=O)[nH]1 (stereo unspecified)
label 1
CO[C@@H](c1nc(SC(C)C)[nH]c(=O)c1C)c1c(F)cccc1Cl
label 0
CCCN(C)c1nc(C(OC)c2c(F)cccc2Cl)c(C)c(=O)[nH]1 (stereo unspecified)
label 1
CCCNc1nc(C(OC)c2c(Cl)cccc2Cl)c(C)c(=O)[nH]1 (stereo unspecified)
label 1
COC(c1nc(SC(C)C)[nH]c(=O)c1C)c1c(Cl)cccc1Cl (stereo unspecified)
label 0
COC(c1nc(NC2CCCC2)[nH]c(=O)c1C)c1c(F)cccc1F (stereo unspecified)
label 1
COC(c1nc(NC2CCCC2)[nH]c(=O)c1C)c1c(Cl)cccc1Cl (stereo unspecified)
label 1
COC(c1nc(NC(C)C)[nH]c(=O)c1C)c1c(F)cccc1F (stereo unspecified)
label 1

Now consider the entry below.
Is the reported Ratio for COC(c1nc(SC2CCCC2)[nH]c(=O)c1C)c1c(Cl)cccc1Cl (stereo unspecified) strictly below 70?
label 0

---

Assignment: determine reported selectivity ratio for the given molecules.
# Method: Therapeutic index, ratio of CC50 for human MT4 cells to EC50 for HIV-1 NL4-3 infected in human MT4 cells
# Assay type: toxicity, cell-based
# Settings: read-out: Ratio CC50/EC50
One number for each entry.

Please state selectivity ratio for every molecule in the list that follows.
1. COC(c1nc(SC2CCCC2)[nH]c(=O)c1C)c1c(Cl)cccc1Cl (stereo unspecified)
2. CCCNc1nc(C(OC)c2c(F)cccc2F)c(C)c(=O)[nH]1 (stereo unspecified)
3. COC(c1nc(NC2CCCC2)[nH]c(=O)c1C)c1c(Cl)cccc1Cl (stereo unspecified)

3660
16300
3400
